Kindly supply the reported IC50 values for the records listed here.
assayedTarget: T1, HLA-DP4 (DPB1*0402) (human), P20036
T1 chain 1: not shown
T1 chain 2: not shown
measurementNotes: competition ELISA, tracer Oxy 271-287
Just the number please, in µM, no unit attached.

Query: What measured IC50 goes with DPHLPTLLLGTSGSGGDDDDPHGPVQLSYYD (modifications not checked) [D31D] ?
Reply: 28.3

Query: What measured IC50 goes with ALWNLHGQALFLGIVL (modifications not checked) [A16L] ?
Reply: 0.725
